Method Summary: Phase 1 open-label study: plasma PK of single inhaled nezulcitinib doses under supplemental oxygenation scenarios
Assay type: in vivo, human
Assay Conditions: human, plasma, inhaled, 9 mg, Administration D2: single 9 mg, oral inhalation, high-flow nasal cannula oxygen 50 L/min; plasma; arithmetic mean; read-out: AUC0-t
Measured Property: AUC(0-t)

1) CCc1cc(O)ccc1-c1ccc2c(-c3nc4c([nH]3)CN(C(C)C)[C@H](C(=O)N3CC(N(C)C)C3)C4)n[nH]c2c1 :: 149 ng·h/mL

====

Method Summary: Phase 1 open-label study: plasma PK of single inhaled nezulcitinib doses under supplemental oxygenation scenarios
Format: in vivo, human
Assay Conditions: human, plasma, inhaled, 3 mg, Administration B: single 3 mg, oral inhalation, low-flow nasal cannula oxygen 6 L/min; plasma; arithmetic mean; read-out: t½ (converted)
Measured Property: half-life

1) CCc1cc(O)ccc1-c1ccc2c(-c3nc4c([nH]3)CN(C(C)C)[C@H](C(=O)N3CC(N(C)C)C3)C4)n[nH]c2c1 :: 12.9 h
